Listed next: entries and their corresponding GI50.
System: T47D
Test: NCI tumour cell line growth inhibition, 48 h
Calls of active or inactive are those of the source. No stated cut-off is given here; in the data, active = GI50 up to about 1.1 µM and inactive = higher.

compound	GI50
COc1nc(C#CCCCC#N)nc(OC)n1	35.4 µM (inactive)
CCC(=O)Oc1c2ccsc2c(OC(=O)CC)c2ccsc12	1.56 µM (inactive)
CCOC(=O)C(NC(=O)CC)(Nc1ccccc1F)C(F)(F)F (centres undefined)	38.4 µM (inactive)
O=C1CC(Cc2n[nH]c3c2CCCC3)CC(=O)N1	> 100 µM (inactive)
O=Cc1c2c(cc3c1CC1(C3)Cc3cc4c(c(C=O)c3C1)CCCC4)CCCC2	> 31.6 µM (inactive)
CC(C)=CCC/C(C)=C/CC/C(C)=C/CC/C(C)=C/CC/C(C)=C/CC/C(C)=C/CC/C(C)=C/CC/C(C)=C/CC/C(C)=C/CO	> 100 µM (inactive)
COC(=O)C(CCCCN)NC(=O)C(CCCCN)NC(C)=O.Cc1ccc(C(=O)Nc2ccc(S(=O)(=O)O)c3cc(S(=O)(=O)O)cc(S(=O)(=O)O)c23)cc1NC(=O)c1cccc(NC(=O)Nc2cccc(C(=O)Nc3cc(C(=O)Nc4ccc(S(=O)(=O)O)c5cc(S(=O)(=O)O)cc(S(=O)(=O)O)c45)ccc3C)c2)c1	> 50 µM (inactive)
Cc1ccc(C(=N)c2ccccc2Cc2cccc3ccccc23)c2ccccc12	65.3 µM (inactive)
NNc1nc2ccccc2c(=O)n1NC(=O)C(=O)Nc1cccc(C(F)(F)F)c1	> 100 µM (inactive)
Oc1ccc(C(O)(c2ccccc2)c2ccccc2)c2ccccc12	2.77 µM (inactive)
CC1CCC(=O)C(C(=O)CC2CC(=O)NC(=O)C2)C1 (centres undefined)	> 100 µM (inactive)
COc1cc(/C=C2/C[C@H]3[C@@H]4CC=C5C[C@@H](O)CC[C@]5(C)[C@H]4CC[C@]3(C)NC2=O)cc(OC)c1OC	24.2 µM (inactive)
O=C(CCSC1=NCCCN1)c1ccc(F)cc1	21.9 µM (inactive)
CN(C)C(=O)C(F)(F)C(c1ccccc1)C1C(=O)N(C)C(=O)N(C)C1=O (centres undefined)	> 100 µM (inactive)
C=[N+](CNC(=O)CNC(=O)C(Cc1ccccc1)NC(=O)OC(C)(C)C)C(=O)CNC(=O)C(Cc1ccccc1)NC(=O)OC(C)(C)C (centres undefined)	> 100 µM (inactive)
COc1cc(-c2cc(=O)c3cc4c(=O)cc(-c5cc(OC)c(OC)c(OC)c5)oc4cc3o2)cc(OC)c1OC	> 54.8 µM (inactive)
C1CNCCNCCN1	> 100 µM (inactive)
CCC1C(NC(=O)OC)C(=O)N1[C@@H](C)c1ccccc1 (some centres undefined)	> 100 µM (inactive)
C[C@H]1OC(=O)[C@@H]2N=NN(Cc3ccccc3)[C@H]12	> 100 µM (inactive)

----------
Tested on: UO-31
Test: NCI tumour cell line growth inhibition, 48 h
Activity calls are given as the source filed them. Rule as the data show it: active = GI50 up to about 1.1 µM and inactive = higher.
Outcomes: active, inactive

compound	system.under.test	category.label
Cc1ccc2c(sc(-c3ccc4c(c3)sc(-c3ccc(N(C)C)cc3)[n+]4C)[n+]2C)c1S(=O)(=O)O.Cc1ccc2c(sc(-c3ccc4c(c3)sc(-c3ccc5c(c3)sc(-c3ccc(N(C)C)cc3)[n+]5C)[n+]4C)[n+]2C)c1S(=O)(=O)O	UO-31	inactive
CC(=O)c1cc2ccccc2oc1=O	UO-31	inactive
Cc1cc(C)c2c(c1)C/C(=C\c1ccccc1C(=O)O)C2=O	UO-31	inactive
CCOC(=O)Oc1cc2c(c(OC)c1OC)-c1ccc(SC)c(=O)cc1C(NC(=O)C(F)(F)F)CC2 (configuration not stated)	UO-31	active
COC(=O)C(CCCCN)NC(=O)C(CCCCN)NC(C)=O.Cc1ccc(C(=O)Nc2ccc(S(=O)(=O)O)c3cc(S(=O)(=O)O)cc(S(=O)(=O)O)c23)cc1NC(=O)c1cccc(NC(=O)Nc2cccc(C(=O)Nc3cc(C(=O)Nc4ccc(S(=O)(=O)O)c5cc(S(=O)(=O)O)cc(S(=O)(=O)O)c45)ccc3C)c2)c1	UO-31	inactive
COC(=O)/C=C1\CCCN1CCc1cc2c(cc1CC#N)OCO2	UO-31	inactive
Cc1cc(C)n(-c2nsc3ccccc23)n1	UO-31	inactive
